target: Mcl-1/Bim interaction, recombinant human Mcl-1 (171-327) (Homo sapiens); construct: made in house; test: Cell free Mcl-1: Bim Affinity Assay (Mcl-1 HTRF); assay type: binding; conditions: TR-FRET, 0.1 nM Mcl-1 (171-327), 0.05 nM biotin-Bim (51-76)
Sequence (Q07820 171-327): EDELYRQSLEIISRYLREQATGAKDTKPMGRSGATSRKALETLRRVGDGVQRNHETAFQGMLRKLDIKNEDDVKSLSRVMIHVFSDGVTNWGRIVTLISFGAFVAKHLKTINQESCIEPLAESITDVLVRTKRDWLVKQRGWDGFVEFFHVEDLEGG
The compounds listed here are annotated with their pIC50.
Please report pIC50 as the negative decimal logarithm of the molar concentration, giving only the number.

compound: C[C@@]12C/C=C/[C@H](O)[C@@H]3CC[C@H]3CN3C[C@@]4(CCCc5cc(Cl)ccc54)COc4ccc(cc43)C(=O)NS(=O)(=O)[C@H]1CCC2 (single isomer, unassigned) [Example 130]
pIC50: 9.41
--
compound: COCCOCC[C@@H]1[C@@H](C)C/C=C/[C@H](O)[C@@H]2CC[C@H]2CN2C[C@@]3(CCCc4cc(Cl)ccc43)COc3ccc(cc32)C(=O)NS1(=O)=O (single isomer, unassigned) [Example 401]
pIC50: 9.27

# context switch: different compound, same pIC50
query: Which pIC50 value belongs to COCCCN1[C@@H](C)C/C=C\[C@H](O)[C@@H]2CC[C@H]2CN2C[C@@]3(CCCc4cc(Cl)ccc43)COc3ccc(cc32)C(=O)NS1(=O)=O (single isomer, unassigned) ?
result: 9.14

---

target: Mcl-1/Bim interaction, recombinant human Mcl-1 (171-327) (Homo sapiens); construct: made in house; assay: Cell free Mcl-1: Bim Affinity Assay (Mcl-1 HTRF); assay type: binding; conditions: TR-FRET, 0.1 nM Mcl-1 (171-327), 0.05 nM biotin-Bim (51-76)
pIC50: −log10 of the molar value.
I would appreciate it if you labelled entries y when pIC50 is 9 or higher, otherwise n.

Recorded results for 5 molecules are shown here.
molecule: O=C1NS(=O)(=O)C2CCCC(CCC(O)C3CCC3CN3CC4(CCCc5cc(Cl)ccc54)COc4ccc1cc43)C2 (single isomer, unassigned)
target.system: Mcl-1/Bim interaction, recombinant human Mcl-1 (171-327) (Homo sapiens)
class.assignment: n
--
molecule: CC[C@@H]1CC/C=C/[C@H](OCC(=O)N(C)C)[C@@H]2CC[C@H]2CN2C[C@@]3(CCCc4cc(Cl)ccc43)COc3ccc(cc32)C(=O)NS1(=O)=O
target.system: Mcl-1/Bim interaction, recombinant human Mcl-1 (171-327) (Homo sapiens)
class.assignment: y
--
molecule: CO[C@H]1/C=C/C[C@@H]2COCC[C@H]2S(=O)(=O)NC(=O)c2ccc3c(c2)N(C[C@@H]2CC[C@H]21)C[C@@]1(CCCc2cc(Cl)ccc21)CO3 (single isomer, unassigned)
target.system: Mcl-1/Bim interaction, recombinant human Mcl-1 (171-327) (Homo sapiens)
class.assignment: y
--
molecule: C[C@H]1C/C=C/[C@H](O)[C@@H]2CC[C@H]2CN2C[C@@]3(CCCc4cc(Cl)ccc43)COc3ccc(cc32)C(=O)NS(=O)(=O)N1C
target.system: Mcl-1/Bim interaction, recombinant human Mcl-1 (171-327) (Homo sapiens)
class.assignment: y
--
molecule: CCO[C@H]1/C=C/CC[C@@H](CC)S(=O)(=O)NC(=O)c2ccc3c(c2)N(C[C@@H]2CC[C@H]21)C[C@@]1(CCCc2cc(Cl)ccc21)CO3
target.system: Mcl-1/Bim interaction, recombinant human Mcl-1 (171-327) (Homo sapiens)
class.assignment: n

Here is another molecule to look at.
query: Reported pIC50 reaches at least 9 for C[C@@H]1[C@@H](C)C/C=C/[C@H](OCC(=O)NC2COC2)[C@@H]2CC[C@H]2CN2C[C@@]3(CCCc4cc(Cl)ccc43)COc3ccc(cc32)C(=O)NS1(=O)=O ?
result: y
